System: SF-295
test.name: Cytotoxicity against human SF295 cells after 48 hrs by SRB assay
Type: functional
run.parameters: SF-295, 48 h
As shown below, each of these compounds has a reported GI50 value.
Give just the numeric value; µM need not be written.

Field: example entries. Status: answers known.
CC(C)Sc1cc2c(c3nsnc13)C(=O)c1ccccc1C2=O; 1.88
O=C1c2ccccc2C(=O)c2c1cc(Sc1ccccc1Br)c1nsnc21; 40.6
O=C1c2ccccc2C(=O)c2c1cc(Sc1ccc(F)cc1F)c1nsnc21; 9

Here is another compound to look at.
Answer with reported GI50 of O=C1c2ccccc2C(=O)c2c1cc(Sc1cccc(Cl)c1)c1nsnc21
7.84

All values here come from ChEMBL document CHEMBL3621107.
